test: pKa determination; assay type: physicochemical; settings: methanol / 1 N HCl solution
TEST READOUT: pKa
Note: the reply should be a number with no unit written.

Input: // query pKa value for entry O=C(CCCN1CCC(O)(c2ccc(Cl)cc2)CC1)c1ccc(F)cc1 [Haloperidol]
Output: 8.22
